All figures here come from patent US20260234141A1.

- experimental.target: p38a activated, mitogen-activated protein kinase-activated protein kinase 2 (MAPKAP-K2 or MK2) enzyme (Homo sapiens, UniProt P49137)
- Sequence (P49137 whole entry): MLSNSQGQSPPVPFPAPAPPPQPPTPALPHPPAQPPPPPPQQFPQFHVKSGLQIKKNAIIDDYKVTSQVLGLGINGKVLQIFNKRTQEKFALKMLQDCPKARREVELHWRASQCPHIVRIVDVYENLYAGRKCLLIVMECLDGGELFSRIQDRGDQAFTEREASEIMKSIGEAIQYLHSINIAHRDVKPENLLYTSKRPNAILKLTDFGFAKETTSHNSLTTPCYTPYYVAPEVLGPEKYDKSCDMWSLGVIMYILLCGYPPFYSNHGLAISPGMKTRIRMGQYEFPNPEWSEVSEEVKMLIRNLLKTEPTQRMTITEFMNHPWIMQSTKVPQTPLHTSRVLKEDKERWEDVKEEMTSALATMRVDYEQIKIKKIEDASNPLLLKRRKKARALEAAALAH
- assay.overview: MK2 OMNIA biochemical assay (AssayQuant continuous-read kinase assay)
- test.conditions: [MK-2]=0.05 nM, [ATP]=100 μM, [AQT0425]=10 μM
pIC50: −log10 of the molar value.
measured.attribute: pIC50

compound | measured.attribute | observed.measurement
O=C1CCC(c2cccc(N3CCN(C[C@H]4CC[C@H](NC(=O)c5ccc(-c6cc(-c7cc8c([nH]7)CCNC8=O)ccn6)c(F)c5)CC4)CC3)c2)C(=O)N1 (stereo partly drawn) [Example 1.7] | pIC50 | 6.30 to 6.82
Cn1nc(C2CCC(=O)NC2=O)c2cccc(N3CCN(CCN4CCN(c5ccc(-c6cc(-c7cc8c([nH]7)CCNC8=O)ccn6)c(F)c5)CC4)CC3)c21 (stereo not drawn) [Example 1.13] | pIC50 | 6.00 to 6.30

# pIC50 of Cn1nc(C2CCC(=O)NC2=O)c2ccc(N3CCN(CCN4CCN(c5cccc(-c6cc(-c7cc8c([nH]7)CCNC8=O)ccn6)c5)CC4)CC3)cc21 (stereo not drawn) [Example 1.11] = > 6.82

For this compound ( O=C1CCC(c2ccc(N3CCN(C[C@H]4CC[C@H](NC(=O)c5ccc(-c6cc(-c7cc8c([nH]7)CCNC8=O)ccn6)c(F)c5)CC4)CC3)cc2)C(=O)N1 (stereo partly drawn) [Example 1.6] ), measured pIC50 is 6.30 to 6.82

Value of measured pIC50 for the entry Cn1nc(C2CCC(=O)NC2=O)c2ccc(N3CCN(CC[C@H]4CC[C@H](NC(=O)c5ccc(-c6cc(-c7cc8c([nH]7)CCNC8=O)ccn6)c(F)c5)CC4)CC3)cc21 (stereo partly drawn) [Example 1.8] : 6.00 to 6.30

Lookup result for O=C1CCC(c2ccc(N3CCN(CCN4CCN(c5cccc(-c6cc(-c7cc8c([nH]7)CCNC8=O)ccn6)c5)CC4)CC3)cc2)C(=O)N1 (stereo not drawn) [Example 1.12] ; measured pIC50: 6.30 to 6.82

Record O=C1CCC(c2ccc(N3CCN(CC[C@H]4CC[C@H](NC(=O)c5ccc(-c6cc(-c7cc8c([nH]7)CCNC8=O)ccn6)c(F)c5)CC4)CC3)cc2)C(=O)N1 (stereo partly drawn) [Example 1.10] . Reported pIC50: 6.00 to 6.30

pIC50 in this record for O=C1CCC(c2cccc(N3CCN(CC[C@H]4CC[C@H](NC(=O)c5ccc(-c6cc(-c7cc8c([nH]7)CCNC8=O)ccn6)c(F)c5)CC4)CC3)c2)C(=O)N1 (stereo partly drawn) [Example 1.9] : 6.30 to 6.82

Record Cn1nc(C2CCC(=O)NC2=O)c2ccc(N3CCN(C[C@H]4CC[C@H](NC(=O)c5ccc(-c6cc(-c7cc8c([nH]7)CCNC8=O)ccn6)c(F)c5)CC4)CC3)cc21 (stereo partly drawn) [Example 1.5] . Reported pIC50: > 6.82

* * *

- experimental.target: MK2 (Homo sapiens)
- Construct: expressed in transfected cells
- Sequence (P49137 whole entry): as above
- assay.overview: MK2 degradation assay in MK2 overexpressed HiBiT-tagged cell line
- Type: cell-based
- test.conditions: cells stably expressing HiBiT-tagged MK2 (overexpressed), overnight incubation, read-out: HiBiT MK2 OE EC50
measured.attribute: DC50

molecule | observed.measurement
O=C1CCC(c2ccc(N3CCN(CC[C@H]4CC[C@H](NC(=O)c5ccc(-c6cc(-c7cc8c([nH]7)CCNC8=O)ccn6)c(F)c5)CC4)CC3)cc2)C(=O)N1 (stereo partly drawn) | 10 to 100 nM
Cn1nc(C2CCC(=O)NC2=O)c2ccc(N3CCN(C[C@H]4CC[C@H](NC(=O)c5ccc(-c6cc(-c7cc8c([nH]7)CCNC8=O)ccn6)c(F)c5)CC4)CC3)cc21 (stereo partly drawn) | < 10 nM
O=C1CCC(c2cccc(N3CCN(C[C@H]4CC[C@H](NC(=O)c5ccc(-c6cc(-c7cc8c([nH]7)CCNC8=O)ccn6)c(F)c5)CC4)CC3)c2)C(=O)N1 (stereo partly drawn) | 10 to 100 nM
O=C1CCC(c2ccc(N3CCN(C[C@H]4CC[C@H](NC(=O)c5ccc(-c6cc(-c7cc8c([nH]7)CCNC8=O)ccn6)c(F)c5)CC4)CC3)cc2)C(=O)N1 (stereo partly drawn) | 10 to 100 nM

So for O=C1CCC(c2ccc(N3CCN(CCN4CCN(c5cccc(-c6cc(-c7cc8c([nH]7)CCNC8=O)ccn6)c5)CC4)CC3)cc2)C(=O)N1 (stereo not drawn) , the logged DC50 turned out to be > 500 nM

get_value(item= Cn1nc(C2CCC(=O)NC2=O)c2ccc(N3CCN(CC[C@H]4CC[C@H](NC(=O)c5ccc(-c6cc(-c7cc8c([nH]7)CCNC8=O)ccn6)c(F)c5)CC4)CC3)cc21 (stereo partly drawn) , readout=DC50) returns < 10 nM

Measured DC50, Cn1nc(C2CCC(=O)NC2=O)c2cccc(N3CCN(CCN4CCN(c5ccc(-c6cc(-c7cc8c([nH]7)CCNC8=O)ccn6)c(F)c5)CC4)CC3)c21 (stereo not drawn) : < 10 nM

// recorded DC50 for O=C1CCC(c2cccc(N3CCN(CC[C@H]4CC[C@H](NC(=O)c5ccc(-c6cc(-c7cc8c([nH]7)CCNC8=O)ccn6)c(F)c5)CC4)CC3)c2)C(=O)N1 (stereo partly drawn) : 101 to 500 nM

// field: DC50; key: Cn1nc(C2CCC(=O)NC2=O)c2ccc(N3CCN(CCN4CCN(c5cccc(-c6cc(-c7cc8c([nH]7)CCNC8=O)ccn6)c5)CC4)CC3)cc21 (stereo not drawn) ; value = 101 to 500 nM
